Test system: HT-29
assay_overview: MTT cytotoxicity
Format: cell-based
study_conditions: Homo sapiens; HT-29, MTT, 48 hours, 100 μM concentration range
Assignment: determine reported IC50 for the given compounds.
// units = µM; emit number, no label

[in] Complete the entry with IC50 for CC(=O)[C@H]1c2c(c(O)c3c(O)cccc3c2-c2c3c(c(O)c4c(O)cccc24)C(=O)C[C@](C)(O)[C@H]3C(C)=O)C(=O)C[C@]1(C)O
[out] 15.5

[in] Note IC50 for the compound shown: CC(=O)[C@@H]1C(C)=CC(=O)c2c1c(-c1c3c(c(O)c4c(O)cccc14)C(=O)C[C@](C)(O)[C@H]3C(C)=O)c1cccc(O)c1c2O
[out] 4.2

[in] Output measured IC50 for this item: CC(=O)[C@H]1c2cc3cccc(O)c3c(O)c2C(=O)C[C@]1(C)O
[out] 8.64

All figures here come from patent US20250230477A1.
